# target-under-test: Cholecystokinin receptor type A (Cavia porcellus, UniProt Q63931)
# Sequence (Q63931 whole entry): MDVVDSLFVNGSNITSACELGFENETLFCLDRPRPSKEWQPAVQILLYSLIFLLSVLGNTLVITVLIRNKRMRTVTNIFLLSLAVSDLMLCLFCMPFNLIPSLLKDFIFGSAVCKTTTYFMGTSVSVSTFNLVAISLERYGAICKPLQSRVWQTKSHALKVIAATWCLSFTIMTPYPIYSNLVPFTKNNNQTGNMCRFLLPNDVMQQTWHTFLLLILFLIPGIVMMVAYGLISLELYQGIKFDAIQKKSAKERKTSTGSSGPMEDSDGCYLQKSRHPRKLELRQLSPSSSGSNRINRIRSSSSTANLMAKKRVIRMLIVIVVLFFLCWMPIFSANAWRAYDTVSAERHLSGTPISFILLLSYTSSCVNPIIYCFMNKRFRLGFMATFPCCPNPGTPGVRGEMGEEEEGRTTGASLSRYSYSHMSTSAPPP
Square brackets hold non-standard residues; d marks the D form. Peptide text beside a SMILES is read from it. * marks the point of attachment. Nle = CCCC[C@H](N)C(=O)O; Boc = CC(C)(C)OC(=O)*
reported-property: IC50 (µM)
Provide only the numeric value, understood in µM.

Known results for compounds:
{"columns": ["compound", "target-under-test", "IC50 / µM"],
 "data": [
  ["CC(C)(C)OC(=O)N[C@@H](Cc1c[nH]c2ccccc12)C(=O)N1CCC[C@H]1C(=O)N[C@@H](CC(=O)O)C(=O)N[C@@H](Cc1ccccc1)C(N)=O (Boc-WPDF-NH2)", "Cholecystokinin receptor type A (Cavia porcellus, UniProt Q63931)", 2.1],
  ["CCCC[C@H](NC(=O)[C@H](Cc1c[nH]c2ccccc12)NC(=O)OC(C)(C)C)C(=O)N[C@@H](CC(=O)O)C(=O)N[C@@H](Cc1ccccc1)C(N)=O (Boc-W[Nle]DF-NH2)", "Cholecystokinin receptor type A (Cavia porcellus, UniProt Q63931)", 4]
]}

API: the following record is the query input.
Q: Form field: IC50 recorded for C[C@H](NC(=O)[C@H](Cc1c[nH]c2ccccc12)NC(=O)OC(C)(C)C)C(=O)N[C@@H](CC(=O)O)C(=O)N[C@@H](Cc1ccccc1)C(N)=O (Boc-WADF-NH2) with Cholecystokinin receptor type A (Cavia porcellus, UniProt Q63931) (enter value)
Result: 10.3
